Attribution: ChEMBL document CHEMBL1146688

- Assayed System: Sodium/hydrogen exchanger 1 (Homo sapiens)
- Sequence (P19634 whole entry, canonical isoform): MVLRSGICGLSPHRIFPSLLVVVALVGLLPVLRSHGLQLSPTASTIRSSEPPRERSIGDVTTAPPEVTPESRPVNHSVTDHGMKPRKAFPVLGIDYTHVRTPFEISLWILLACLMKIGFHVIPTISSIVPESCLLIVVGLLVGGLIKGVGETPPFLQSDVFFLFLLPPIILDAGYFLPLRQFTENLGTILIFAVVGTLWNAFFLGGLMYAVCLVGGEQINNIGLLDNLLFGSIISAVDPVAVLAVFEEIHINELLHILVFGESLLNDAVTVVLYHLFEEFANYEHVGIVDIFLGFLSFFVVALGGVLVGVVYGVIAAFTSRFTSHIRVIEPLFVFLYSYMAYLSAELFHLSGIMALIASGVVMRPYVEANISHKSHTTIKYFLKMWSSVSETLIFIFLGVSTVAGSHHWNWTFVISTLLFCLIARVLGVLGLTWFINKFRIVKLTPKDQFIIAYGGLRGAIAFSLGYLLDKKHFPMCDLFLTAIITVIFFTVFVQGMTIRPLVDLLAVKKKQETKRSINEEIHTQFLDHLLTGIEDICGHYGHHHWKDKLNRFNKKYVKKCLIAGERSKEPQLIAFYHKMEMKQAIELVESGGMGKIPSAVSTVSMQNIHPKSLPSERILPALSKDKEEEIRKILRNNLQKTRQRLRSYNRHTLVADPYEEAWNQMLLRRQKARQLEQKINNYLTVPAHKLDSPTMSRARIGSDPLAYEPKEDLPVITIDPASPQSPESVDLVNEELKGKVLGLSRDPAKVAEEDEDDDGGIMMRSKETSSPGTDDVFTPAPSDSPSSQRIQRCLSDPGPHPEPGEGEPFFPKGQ
- Protocol Summary: Inhibition of sodium dependent recovery of pH following imposed acidosis in AP1 cell line expressing the human NHE-1 isoform.
- Format: functional, cell-based
pIC50: −log10 of the molar value.
Listed below: pIC50 values for each entry.
Parameter Measured: pIC50

[[record]]
compound = "Cc1nc(N)[nH]c1[C@@H]1C(c2cccc(Cl)c2)C1(C)C (single isomer, unassigned)"
test_result = 7.41

[[record]]
compound = "CC1(C)C(c2cccc(Cl)c2)[C@H]1C(=O)NC(=N)N (single isomer, unassigned)"
test_result = 7.68

[[record]]
compound = "Cc1[nH]c(N)nc1[C@@H]1[C@@H](c2cccc3c2CCO3)C1(C)C"
test_result = 5.59

[[record]]
compound = "CC1(C)C(c2cc(Cl)cc(Cl)c2)[C@H]1c1c[nH]c(N)n1 (single isomer, unassigned)"
test_result = 6.74


###

- Assayed System: Sodium/hydrogen exchanger 1 (Homo sapiens)
- Protocol Summary: Inhibition of sodium dependent recovery of pH following imposed acidosis in AP1 cell line expressing the human NHE-1 isoform.
Param label: returns criterion met when IC50 < 4 µM, returns criterion not met otherwise, including exact equality.

[[record]]
compound = "CC1(C)[C@H](c2cnc(N)s2)[C@H]1c1cccc2c1CCO2"
group_label = "criterion not met"

[[record]]
compound = "CC1(C)[C@H](c2nc(N)no2)[C@H]1c1cccc2c1CCO2"
group_label = "criterion not met"

[[record]]
compound = "Cc1[nH]c(N)nc1[C@@H]1C(c2cc(Cl)cc(Cl)c2)C1(C)C (single isomer, unassigned)"
group_label = "criterion met"

[[record]]
compound = "CC1(C)C(c2cccc(Cl)c2)[C@H]1c1cnc(N)s1 (single isomer, unassigned)"
group_label = "criterion not met"

[[record]]
compound = "CC1(C)C(c2cc(Cl)cc(Cl)c2)[C@H]1c1cc(N)nc(N)n1 (single isomer, unassigned)"
group_label = "criterion met"

[[record]]
compound = "Cc1[nH]cnc1[C@@H]1C(c2cc(Cl)cc(Cl)c2)C1(C)C (single isomer, unassigned)"
group_label = "criterion met"

[[record]]
compound = "CC1(C)[C@H](c2c[nH]cn2)[C@H]1c1cccc2c1CCO2"
group_label = "criterion not met"

[[record]]
compound = "CC1(C)C(c2cc(Cl)cc(Cl)c2)[C@H]1c1cnc(N)s1 (single isomer, unassigned)"
group_label = "criterion not met"

[[record]]
compound = "CC1(C)C(c2cccc(Cl)c2)[C@H]1c1c[nH]c(N)n1 (single isomer, unassigned)"
group_label = "criterion met"

[[record]]
compound = "CC1(C)[C@H](c2c[nH]c(N)n2)[C@H]1c1cccc2c1CCO2"
group_label = "criterion met"

[[record]]
compound = "CSc1nccn1[C@@H]1[C@@H](c2cccc(Cl)c2)C1(C)C"
group_label = "criterion not met"

[[record]]
compound = "Cc1[nH]cnc1[C@@H]1[C@@H](c2cccc3c2CCO3)C1(C)C"
group_label = "criterion not met"

